# credit: patent US9963452B2

# Test system: LN18 glioblastoma cell line
# Experiment summary: In-vitro cell survival assay (Alamar blue), LN18
# Assay type: cell-based
# Test parameters: Homo sapiens, LN-18, 24 h; LN18, one day after compound addition

Compound	Limit operator	EC50, µM
CC(C)c1nc(Nc2ccc(N)cc2)nc(Nc2cc(C3CC3)[nH]n2)n1 [drawing 461]	=	40
Nc1nc(Nc2ccc(C(=O)NCCc3ccncc3)cc2)cc(Nc2ccc3ncsc3c2)n1 [drawing 417]	>	100
COc1cccc(Nc2cc(Nc3cccc(C(=O)N4CCN(C(C)=O)CC4)c3)nc(N)n2)c1 [drawing 377]	=	64
NC(=O)c1c(NC(=O)Nc2ccccc2)sc2c1CCCC2 [drawing 401]	=	38
O=C(O)c1cccc(Nc2ncc(Cl)c(Nc3ccc4ncsc4c3)n2)c1 [drawing 462]	=	40
Nc1nc(Nc2ccc(C(=O)N3CCC[C@H]4CCCC[C@H]43)cc2)cc(Nc2ccc3ncsc3c2)n1	=	14
CC(=O)N[C@@H]1CCN(C(=O)c2cccc(Nc3cc(N(C)c4cccc(C)c4)ncn3)c2)C1 [drawing 378]	>	100
CN1CCN(C(=O)c2ccc(Nc3ncc(Cl)c(Nc4ccc5ncsc5c4)n3)cc2)CC1 [drawing 444]	=	22
O=C(NC[C@@H]1CCCO1)c1cccc(Nc2nccc(Nc3ccc4ncsc4c3)n2)c1	=	15
O=C(c1cccc(-c2noc(-c3n[nH]c4c3CCCC4)n2)c1)N1CCCCC1 [drawing 385]	=	62
CC(C)c1nc(Nc2ccc(C(=O)NC3CCCCC3)cc2)nc(Nc2ccc3ncsc3c2)n1 [drawing 456]	=	30
CC(C)c1nc(Nc2ccc(C(=O)NCc3ccccc3)cc2)nc(Nc2cccc(Cc3nc4ccccc4s3)c2)n1 [drawing 453]	>	100
Cc1ccc(CNC(=O)c2cccc(Nc3nccc(Nc4ccc5ncsc5c4)n3)c2)o1 [drawing 419]	=	7
CC(C)(C)OC(=O)NC1CCN(C(=O)c2ccc(Nc3ncc(Cl)c(Nc4ccc5ncsc5c4)n3)cc2)CC1 [drawing 446]	=	18
O=C(c1cccc(Nc2nccc(Nc3ccc4ncsc4c3)n2)c1)N1CCCCC1 [drawing 438]	=	12
O=C(O)c1ccc(Nc2ncc(Cl)c(Nc3ccc4ncsc4c3)n2)cc1 [drawing 445]	=	18
COc1ccc(Nc2nc(N(C)CCO)nc3c2cnn3-c2ccccc2)cc1 [drawing 387]	=	6
